// reported binding signal for each item listed
Molecular target: T1, RBFOX1 RRM RbFoxmut (Fox-RRM*) (Homo sapiens, UniProt Q9NWB1 109-208, R118D;E147R;N151S;E152T)
T1 sequence: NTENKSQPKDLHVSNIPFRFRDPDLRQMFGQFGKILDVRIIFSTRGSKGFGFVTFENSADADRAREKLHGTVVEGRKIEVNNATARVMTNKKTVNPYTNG
Test: EMSA; HiTS-Eq, 1 nM pool, 10 min; buffer printed only for the single-RNA assays: 10 mM Tris pH 7.5, 150 mM NaCl, 3.4 mM EDTA, 0.001% NP-40, 30 C
Conditions: tags: His6 N-terminal (pET28a); label: 5' 32P
In all, about 16,000 sequences were measured (“ka relative to ugcaugu”: median about 0.096, highest 2% from about 0.35 on). The list comes from a sample in which the highest values are over-represented; it also holds close analogues and randomly drawn sequences.

>  <binder>
UGGCAUC (DNA:RNA) RNA: GGGAGACCGGAAUUCAGAUUGUCCUGGCAUCUUAAAUCCCGUCGUAGCCACCA DNA 1: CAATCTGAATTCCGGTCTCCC DNA 2: TGGTGGCTACGACGGGATT

>  <binding signal>
0.411 KA relative to UGCAUGU

$$$$
>  <binder>
UGGCACC (DNA:RNA) RNA: GGGAGACCGGAAUUCAGAUUGUCCUGGCACCUUAAAUCCCGUCGUAGCCACCA DNA 1: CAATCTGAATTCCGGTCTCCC DNA 2: TGGTGGCTACGACGGGATT

>  <binding signal>
0.113 KA relative to UGCAUGU

$$$$
